Reference source: paper PMC2662387

Experiment: Aqueous solubility
Format: physicochemical
attribute-measured: Aqueous solubility (in words)

{"columns": ["smiles-entry", "measured-result"],
 "data": [
  ["CCCN(CC[C@H]1CC[C@H](NC(=O)c2ccc3ccccc3c2)CC1)[C@H]1CCc2nc(N)sc2C1.Cl.Cl", "good aqueous solubility"],
  ["CCCN(CC[C@H]1CC[C@H](NC(=O)/C=C/c2ccccc2)CC1)[C@H]1CCc2nc(N)sc2C1", "good aqueous solubility"],
  ["CCCN(CCCCNC(=O)c1ccc2ccccc2c1)[C@H]1CCc2nc(N)sc2C1", "good aqueous solubility"]
]}
